settings: 298.15 K; 101.33 kPa; Liquid; Vibrating tube method
measured.endpoint: mass density (kg/m3)

molecule=CCn1cc[n+](C)c1.O=S(=O)([N-]S(=O)(=O)C(F)(F)C(F)(F)F)C(F)(F)C(F)(F)F value=1593.65
molecule="CCn1cc[n+](C)c1.F[B-](F)(F)F [1-ethyl-3-methylimidazolium tetrafluoroborate]" value=1279.7
molecule=CCn1cc[n+](C)c1.O=S(=O)([N-]S(=O)(=O)C(F)(F)F)C(F)(F)F value=1518.83
molecule=CCn1cc[n+](C)c1.O=S(=O)([O-])C(F)(F)C(F)(F)C(F)(F)C(F)(F)F value=1546.54

---

conditions: 363.15 K; 101.33 kPa; Liquid; Vibrating tube method
measured.endpoint: mass density (kg/m3)

molecule="CCn1cc[n+](C)c1.F[B-](F)(F)F [1-ethyl-3-methylimidazolium tetrafluoroborate]" measured_endpoint="mass density" value=1231.6
molecule=CCn1cc[n+](C)c1.O=S(=O)([O-])C(F)(F)C(F)(F)C(F)(F)C(F)(F)F measured_endpoint="mass density" value=1479.58
molecule=CCn1cc[n+](C)c1.O=S(=O)([N-]S(=O)(=O)C(F)(F)F)C(F)(F)F measured_endpoint="mass density" value=1454.67
molecule=CCn1cc[n+](C)c1.O=S(=O)([N-]S(=O)(=O)C(F)(F)C(F)(F)F)C(F)(F)C(F)(F)F measured_endpoint="mass density" value=1523.27

---

details: 323.15 K; 101.33 kPa; Liquid; Vibrating tube method
Listed here: items and their measured mass density.
measured.endpoint: mass density (kg/m3)

molecule=CCn1cc[n+](C)c1.O=S(=O)([O-])C(F)(F)C(F)(F)C(F)(F)C(F)(F)F unit_abbreviation=kg/m3 value=1520.31
molecule="CCn1cc[n+](C)c1.F[B-](F)(F)F [1-ethyl-3-methylimidazolium tetrafluoroborate]" unit_abbreviation=kg/m3 value=1260.85
molecule=CCn1cc[n+](C)c1.O=S(=O)([N-]S(=O)(=O)C(F)(F)F)C(F)(F)F unit_abbreviation=kg/m3 value=1493.8
molecule=CCn1cc[n+](C)c1.O=S(=O)([N-]S(=O)(=O)C(F)(F)C(F)(F)F)C(F)(F)C(F)(F)F unit_abbreviation=kg/m3 value=1566.23

---

compounds and their reported mass density
settings: 303.15 K; 101.33 kPa; Liquid; Vibrating tube method
measured.endpoint: mass density (kg/m3)

compound=CCn1cc[n+](C)c1.O=S(=O)([N-]S(=O)(=O)C(F)(F)C(F)(F)F)C(F)(F)C(F)(F)F value=1588.12
compound="CCn1cc[n+](C)c1.F[B-](F)(F)F [1-ethyl-3-methylimidazolium tetrafluoroborate]" value=1275.89
compound=CCn1cc[n+](C)c1.O=S(=O)([O-])C(F)(F)C(F)(F)C(F)(F)C(F)(F)F value=1541.24
compound=CCn1cc[n+](C)c1.O=S(=O)([N-]S(=O)(=O)C(F)(F)F)C(F)(F)F value=1513.78

---

conditions: 333.15 K; 101.33 kPa; Liquid; Vibrating tube method
List of mass density values.
measured.endpoint: mass density (kg/m3)

compound=CCn1cc[n+](C)c1.O=S(=O)([N-]S(=O)(=O)C(F)(F)F)C(F)(F)F value=1483.92
compound=CCn1cc[n+](C)c1.O=S(=O)([N-]S(=O)(=O)C(F)(F)C(F)(F)F)C(F)(F)C(F)(F)F value=1555.4
compound=CCn1cc[n+](C)c1.O=S(=O)([O-])C(F)(F)C(F)(F)C(F)(F)C(F)(F)F value=1510.01
compound="CCn1cc[n+](C)c1.F[B-](F)(F)F [1-ethyl-3-methylimidazolium tetrafluoroborate]" value=1253.45
